# Experimental target: furin, P09958;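 note: purified furin at 1:10 enzyme:substrate in 50 mM HEPES pH 7.5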
# Sequence (P09958 whole entry): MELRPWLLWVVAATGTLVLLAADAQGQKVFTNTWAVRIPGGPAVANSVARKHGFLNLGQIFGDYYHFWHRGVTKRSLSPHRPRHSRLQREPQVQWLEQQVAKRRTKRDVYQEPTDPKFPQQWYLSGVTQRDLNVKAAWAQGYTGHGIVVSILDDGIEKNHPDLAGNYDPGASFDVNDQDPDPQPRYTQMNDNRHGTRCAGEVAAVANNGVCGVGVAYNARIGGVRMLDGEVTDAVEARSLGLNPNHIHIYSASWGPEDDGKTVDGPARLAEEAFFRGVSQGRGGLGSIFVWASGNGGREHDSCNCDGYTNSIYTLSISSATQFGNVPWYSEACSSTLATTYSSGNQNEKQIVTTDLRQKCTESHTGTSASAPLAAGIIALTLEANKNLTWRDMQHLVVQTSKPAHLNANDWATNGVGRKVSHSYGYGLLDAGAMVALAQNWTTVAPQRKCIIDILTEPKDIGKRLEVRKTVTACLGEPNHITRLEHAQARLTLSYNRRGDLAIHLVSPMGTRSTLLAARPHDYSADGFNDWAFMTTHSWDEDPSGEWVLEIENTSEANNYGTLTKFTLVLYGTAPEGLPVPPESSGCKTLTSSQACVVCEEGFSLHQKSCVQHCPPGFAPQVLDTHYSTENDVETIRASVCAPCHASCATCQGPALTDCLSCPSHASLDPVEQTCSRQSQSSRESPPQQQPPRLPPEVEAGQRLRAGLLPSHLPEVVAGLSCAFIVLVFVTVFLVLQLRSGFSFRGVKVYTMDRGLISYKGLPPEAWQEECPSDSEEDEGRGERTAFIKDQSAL
# Assay explanation: furin cleavage Z-score vs untreated control; higher = more cleavage, active = 3.5 or more, inactive = 1 or less, 8 variable residues between constant flanks
# Test context: 15 min
The list shows a part of the results. How many sequences the whole screen found active is unknown.
Entries and their furin cleavage Z-score
Would you mind answering with just the numeric figure?

The examples below pair each entry with its known result.
{"columns": ["Seq", "Val"],
 "data": [
  ["CAEVPCHRPAAGNASASA [HC2403]", 0.357],
  ["CASTPCSFHLAGNASASA [HC2527]", 0.268],
  ["CASRRRARRHAGNASASA [FS-1416]", 6.18],
  ["CAGSHRRQRRAGNASASA [FS-434]", 10.6],
  ["CAAISRRQRRAGNASASA [FS-743]", 8.53]
]}

In: What furin cleavage Z-score value was documented for this sequence, CASRRRFYRPAGNASASA [FS-506] ?
Out: 0.235

In: Again, but for CAVKNGTMRIAGNASASA [HC1180]
Out: 1.25

In: Again, but for CARSIRDILAAGNASASA [FS-1840]
Out: 1.74

In: Again, but for CASSNQLQRRAGNASASA [NG1]
Out: 2.01

In: Again, but for CAMTGYTGDFAGNASASA [HC881]
Out: 1.08

In: Again, but for CAKRSRDARRAGNASASA [FS-45]
Out: -0.052

In: Again, but for CALEGEPGDPAGNASASA [HC1356]
Out: 0.288

In: Again, but for CAFCVQPEKGAGNASASA [HC1443]
Out: -0.187

In: Again, but for CASRRRTRRPAGNASASA [FS-873]
Out: 0.54

In: Again, but for CAAEVIAPAVAGNASASA [HC1032]
Out: -0.402
